- System: BT-549 breast
- test_method_notes: NCI-60 one-dose screen, 48 h (100 = growth as untreated, 0 = no growth, -100 = all killed)
- experimental_context: 10 µM unless noted
The panel holds about 83,000 compounds, 20% with a hit somewhere; the sample as a whole holds those more often.
assay_endpoint: growth (%)

>>> print(df.to_string())
                                    compound  assay_endpoint  unit_symbol  endpoint_value
 0  CNc1nc(C)c(-c2nc(Nc3cccc(S(N)(=O)=O)c3)ncc2F)s1          growth            %           -17.1
 1  C=C1CC2(OC1=O)C(=O)Nc1ccccc12 (stereo not given)          growth            %            75.3
 2  COc1ccc(-c2cc(/C=C3\C(=O)Nc4ccc(Cl)cc43)[nH]n2)cc1          growth            %            55.4
 3  CCOC(=O)c1c2c(n3ccc(NC(=O)CCN(CC)CC)cc13)C(=O)c1ncccc1C2=O          growth            %            75.9
 4  Nc1c(C(=O)Nc2cccc3c2OCCO3)sc2nc3c(cc12)CN(Cc1ccccc1)CC3          growth            %            69.7
 5  CC(C)(C)n1cc(-c2ccnc(NCCNS(=O)(=O)c3ccccc3)c2)c(-c2cccc(O)c2)n1          growth            %            26.4
 6  CC/C=C\C[C@H](O)C/C=C1/C(=O)C=C[C@@H]1C/C=C\CCCC(=O)NC(C)C          growth            %           0.828
 7     CCCCN(CC)CCCCCCCCCCN1CCCc2cc(OC)ccc21          growth            %            89.3
 8                  Nc1cc2nc3ccccc3sc-2cc1=O          growth            %            63.1
 9  O=[N+]([O-])c1cccc(-c2nc3sccn3c2-c2ccnc(NCCNS(=O)(=O)c3ccc(C(F)(F)F)cc3)n2)c1          growth            %            26.4
10  O=C1c2cccnc2C(=O)c2c1c(C(=O)OCCN1CCOCC1)c1ccccn21          growth            %           -13.3
11  CCN(CC)CCCCNc1ccc(NCCCCN(CC)CC)c2c1C(=O)c1ccccc1C2=O          growth            %            95.6
12        COC(/C=C/c1ccc([N+](=O)[O-])cc1)OC          growth            %             118
13    Cc1cc(Nc2nc(N3CCOCC3)nc3ccccc23)n[nH]1          growth            %            61.5
14  Cn1c2ccccc2c2c3c(c4c5ccccc5[nH]c4c21)C(=O)N(N)C3=O          growth            %            46.6
15  CN(C)CCOc1ccc(-c2nc3ccc(-c4nc5ccc(N6CCN(C)CC6)cc5[nH]4)cc3[nH]2)cc1          growth            %            74.2
16     Cc1ccc2c(NCCCN(C)C)c3c(C)nn(C)c3nc2c1          growth            %            54.3
17  C=C1CC2(OC1=O)C(=O)N(CCCCCCCCCCCCN1C(=O)C3(CC(=C)C(=O)O3)c3ccccc31)c1ccccc12 (stereo not given)          growth            %              84
18  Cc1nn(-c2nc3ccccc3[nH]2)c2c1C(c1ccc3c(c1)OCO3)CC(=O)N2 (stereo not given)          growth            %            49.4
19    COc1ccccc1/C=C(/C(=O)c1ccccc1)c1ccccc1          growth            %            92.4
20  COc1cc2nc3cc([N+](=O)[O-])ccc3c(NCCCNCC(C)(C)O)c2cc1OC          growth            %           -71.3
21     NC1=CSC2=N/C(=C\c3ccc(Cl)cc3)C(=O)N12          growth            %            75.3
22  CC1(C)CC(=O)C(c2c(-c3ccccc3)[nH]c3[nH]c(=S)[nH]c(=O)c23)=C(O)C1          growth            %             106
23  CN1CCN(Cc2ccc(NC(=O)c3cncc(C#Cc4cnc(N)c5cccnc45)c3)cc2C(F)(F)F)CC1          growth            %            38.9
24               Oc1c(Cl)cc(Cl)cc1CNc1nccnn1          growth            %             105
25                 c1ccc(Sc2ncnc3ccccc23)cc1          growth            %            51.6
26       Cc1ccc(SCN2CCN(c3cccc(Cl)c3)CC2)cc1          growth            %            62.7
27     CCN(CC)CCCNc1cccc2c(SCc3ccccc3)ccnc12          growth            %            74.8
28      O=C1C(=O)N(CCCCn2cc(CO)nn2)c2ccccc21          growth            %             115
29  O=C1C2CC=CCC2C(=O)N1CNc1ccc(Cl)cc1 (stereo not given)          growth            %            84.1
30  CC/C(Cc1ccccc1)=C(\c1ccc(OCCN2CCCC2)cc1)c1ccc(OC(C)=O)cc1          growth            %            93.8
31  COc1cc(-c2c3sc(=O)[nH]c3nc3c2c(=O)[nH]n3C(C)C)cc2c1OCO2          growth            %             105
32  COc1ccc(/C=c2/c(=O)[nH]c3nc4sc(C)c(C)c4c(=O)n23)cc1          growth            %            85.1
33                       CCCN(CCC)CN(CCC)CCC          growth            %            91.4
34          O=C1c2ccccc2-c2nccc3cc(Cl)nc1c23          growth            %            58.5
35  C=C(CN1CCN(c2cccc(C(F)(F)F)n2)CC1)c1ccc(C(=O)Nc2ccccc2N)cc1          growth            %            22.8
36  COc1ccc(C2Nc3ccccc3-n3cccc32)cc1 (stereo not given)          growth            %            97.1
37   Cc1cc(Nc2nc(-c3cccnc3)nc3ccccc23)n[nH]1          growth            %            47.2
38  CCOC(=O)C12CCCC1=CC(=O)CC2 (stereo not given)          growth            %             110
39  COc1ccc(-c2cc(=O)[nH]c3c(OC)c4ccccc4c(OC)c23)cc1          growth            %              26

* * *

- System: SNB-75 CNS
- test_method_notes: NCI-60 one-dose screen, 48 h (100 = growth as untreated, 0 = no growth, -100 = all killed)
- experimental_context: 10 µM unless noted
Compounds without any hit were thinned out: in the full panel of roughly 83,000, 20% have a hit.
assay_endpoint: growth (%)

>>> print(df.to_string())
                                   molecule  assay_endpoint  endpoint_value
0  COc1ccc2nc3cc(Cl)ccc3c(N3CCN(c4ccnc(N5CCOCC5)n4)CC3)c2c1          growth            66.8
1  C=C1CCC2C3(C)COC(c4ccccc4Br)OC3CCC2(C)C1C/C=C1/C(=O)OCC1OC(C)=O (stereo not drawn)          growth           -25.3
2                     CC(C)n1cc2c(N)ncnc2n1          growth            81.6
3  CC(=O)OCC1OC(OC2=C(CC=C(Cl)Cl)C(=O)c3ccccc3C2=O)C(OC(C)=O)C(OC(C)=O)C1OC(C)=O (stereo not drawn)          growth            71.1
4                  CCCCCCCCCCCCCC1=NCCN1CCO          growth             150
5  O=S(=O)(NCCCNc1cc(-c2cn(-c3ccccc3)nc2-c2cccc(O)c2)ccn1)c1ccccc1          growth              51
6                Cl/C(=N\Nc1ccccc1)c1ccccc1          growth            67.4
7  CN(C)CC(=O)Nc1ccc(Cn2nnc3c2C(=O)c2nnn(Cc4ccc(NC(=O)CN(C)C)cc4)c2C3=O)cc1          growth           -92.8
